molecular target: Protein mono-ADP-ribosyltransferase PARP6 (Homo sapiens, UniProt Q2NL67); assay: Inhibition of N-terminal GST-tagged recombinant human full length PARP6 expressed in Baculovirus infected Sf9 cells using biotinylated substrate after 1 hr by chemiluminescence method
Sequence (Q2NL67 whole entry): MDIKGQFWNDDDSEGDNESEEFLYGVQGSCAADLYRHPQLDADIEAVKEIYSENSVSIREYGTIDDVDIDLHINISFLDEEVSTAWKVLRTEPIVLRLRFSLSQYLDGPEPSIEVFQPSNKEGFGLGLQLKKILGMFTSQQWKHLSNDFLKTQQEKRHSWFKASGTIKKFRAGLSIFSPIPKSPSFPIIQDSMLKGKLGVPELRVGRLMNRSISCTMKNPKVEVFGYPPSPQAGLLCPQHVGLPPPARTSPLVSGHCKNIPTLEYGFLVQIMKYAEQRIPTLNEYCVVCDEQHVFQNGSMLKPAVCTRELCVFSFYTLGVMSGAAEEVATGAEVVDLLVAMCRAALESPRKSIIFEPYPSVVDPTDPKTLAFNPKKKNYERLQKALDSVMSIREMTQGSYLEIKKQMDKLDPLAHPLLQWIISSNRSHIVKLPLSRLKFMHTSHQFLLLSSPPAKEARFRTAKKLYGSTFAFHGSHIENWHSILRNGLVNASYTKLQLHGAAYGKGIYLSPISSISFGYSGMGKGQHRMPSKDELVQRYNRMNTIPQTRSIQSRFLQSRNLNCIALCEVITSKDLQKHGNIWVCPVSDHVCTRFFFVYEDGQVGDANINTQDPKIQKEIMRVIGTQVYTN
assay.endpoint: IC50

compound.structure.string	val
CC(C)(O)c1ccc(-c2nc3c(F)cc(F)cc3c(=O)[nH]2)cc1	> 10 µM

----------
target: Poly [ADP-ribose] polymerase 1 (Homo sapiens); assay: Inhibition of recombinant human full-length Myc/His-tagged Parp-1 expressed in baculovirus infected Sf21 insect cells assessed as reduction in auto-PARsylation using activated DNA as substrate incubated for 150 mins in presence of NAD and bio-NAD as co-substrate by TR-FRET assay
Sequence (P09874 whole entry): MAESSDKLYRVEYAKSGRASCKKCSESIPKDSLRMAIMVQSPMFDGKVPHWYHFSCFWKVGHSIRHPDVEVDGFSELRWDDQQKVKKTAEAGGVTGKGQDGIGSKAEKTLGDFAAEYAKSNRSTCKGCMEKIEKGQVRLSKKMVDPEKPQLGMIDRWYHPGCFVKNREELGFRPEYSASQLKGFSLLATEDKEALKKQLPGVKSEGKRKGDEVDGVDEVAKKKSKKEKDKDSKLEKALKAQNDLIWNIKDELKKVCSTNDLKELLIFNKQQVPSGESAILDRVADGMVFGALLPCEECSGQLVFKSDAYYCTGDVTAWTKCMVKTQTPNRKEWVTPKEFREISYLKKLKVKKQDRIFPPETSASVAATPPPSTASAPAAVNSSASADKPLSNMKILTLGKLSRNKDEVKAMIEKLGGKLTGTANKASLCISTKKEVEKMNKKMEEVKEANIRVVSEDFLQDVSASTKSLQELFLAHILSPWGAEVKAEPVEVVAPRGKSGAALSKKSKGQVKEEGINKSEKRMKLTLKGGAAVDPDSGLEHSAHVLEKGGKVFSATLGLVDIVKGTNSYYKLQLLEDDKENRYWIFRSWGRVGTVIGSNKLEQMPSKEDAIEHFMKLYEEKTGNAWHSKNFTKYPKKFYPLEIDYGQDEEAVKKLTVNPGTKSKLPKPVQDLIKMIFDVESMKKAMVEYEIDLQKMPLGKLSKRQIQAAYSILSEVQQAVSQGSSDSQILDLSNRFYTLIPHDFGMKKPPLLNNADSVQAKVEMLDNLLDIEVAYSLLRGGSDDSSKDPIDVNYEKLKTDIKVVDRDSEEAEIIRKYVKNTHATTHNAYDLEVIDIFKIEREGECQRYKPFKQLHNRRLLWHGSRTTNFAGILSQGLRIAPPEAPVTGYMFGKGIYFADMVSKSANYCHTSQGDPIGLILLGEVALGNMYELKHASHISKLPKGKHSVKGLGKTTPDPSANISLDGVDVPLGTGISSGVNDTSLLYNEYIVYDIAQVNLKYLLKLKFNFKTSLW

compound.structure.string	unit.text	IC50
CC(C)(O)c1ccc(-c2nc3ccc(F)cc3c(=O)[nH]2)nc1	nM	2500
CC(C)(O)c1ccc(-c2nc3ccccc3c(=O)[nH]2)cc1	nM	910
COc1cccc2c(=O)[nH]c(-c3ccc(C(C)(C)O)cc3)nc12	nM	630

----------
Each record here notes measured solubility thermodynamic at 24 h.
experiment: Thermodynamic solubility in phosphate buffer at pH 7.4 at 2 mg incubated under shaking condition for 6 hrs followed by rechecking and readjusting pH to 7.4 and further incubated for 18 hrs by HPLC/UV detection method; format: physicochemical; conditions: read-out: Therm_solubility
assay.endpoint: solubility thermodynamic at 24 h (µg/mL)

compound.structure.string	assay.endpoint	unit.text	comparison.sign	val
COc1cccc2c(=O)[nH]c(-c3ccc(C(C)(C)O)cc3)nc12	solubility thermodynamic at 24 h	µg/mL	=	153
CC(C)(O)c1ccc(-c2nc3cccc(F)c3c(=O)[nH]2)cc1	solubility thermodynamic at 24 h	µg/mL	=	20
CC(C)(O)c1ccc(-c2nc3ccccc3c(=O)[nH]2)cc1	solubility thermodynamic at 24 h	µg/mL	=	38
CC(C)(O)c1ccc(-c2nc3c(F)cc(F)cc3c(=O)[nH]2)cc1	solubility thermodynamic at 24 h	µg/mL	=	31
Cc1cccc2c(=O)[nH]c(-c3ccc(C(C)(C)O)cc3)nc12	solubility thermodynamic at 24 h	µg/mL	=	4
COCCOC(C)(C)c1ccc(-c2nc3ccc(F)cc3c(=O)[nH]2)cc1	solubility thermodynamic at 24 h	µg/mL	=	6
Cc1cc(F)cc2c(=O)[nH]c(-c3ccc(C4CCN(C)CC4)cc3)nc12	solubility thermodynamic at 24 h	µg/mL	=	5
CC(C)(OCCO)c1ccc(-c2nc3ccc(F)cc3c(=O)[nH]2)cc1	solubility thermodynamic at 24 h	µg/mL	=	23
Cc1cc(F)cc2c(=O)[nH]c(-c3ccc(C4CCNCC4)cc3)nc12.Cl	solubility thermodynamic at 24 h	µg/mL	=	44
Cl.O=c1[nH]c(-c2ccc(C3CCNCC3)cc2)nc2c(F)cc(F)cc12	solubility thermodynamic at 24 h	µg/mL	=	57
COc1ccc(-c2nc3ccccc3c(=O)[nH]2)cc1	solubility thermodynamic at 24 h	µg/mL	=	4
CC(C)(C)c1ccc(-c2nc3ccccc3c(=O)[nH]2)cc1	solubility thermodynamic at 24 h	µg/mL	<	1
CC(C)(O)c1ccc(-c2nc3ccc(F)c(F)c3c(=O)[nH]2)cc1	solubility thermodynamic at 24 h	µg/mL	=	25
CC(C)(C)c1ccc(-c2nc3ccc(F)cc3c(=O)[nH]2)cc1	solubility thermodynamic at 24 h	µg/mL	<	1
Cc1cc(F)cc2c(=O)[nH]c(-c3ccc(C(C)(C)O)cc3)nc12	solubility thermodynamic at 24 h	µg/mL	=	1
Cc1cc(F)cc2c(=O)[nH]c(-c3ccc(N4CCN(C)CC4)cc3)nc12	solubility thermodynamic at 24 h	µg/mL	=	4
CC(C)(O)c1ccc(-c2nc3c(F)ccc(F)c3c(=O)[nH]2)cc1	solubility thermodynamic at 24 h	µg/mL	=	5
CC(C)(O)c1ccc(-c2nc3c(F)cccc3c(=O)[nH]2)cc1	solubility thermodynamic at 24 h	µg/mL	=	15
CN1CCN(c2ccc(-c3nc4ccc(F)cc4c(=O)[nH]3)cc2)CC1	solubility thermodynamic at 24 h	µg/mL	=	6
CC(C)(O)c1ccc(-c2nc3ccc(F)cc3c(=O)[nH]2)cc1	solubility thermodynamic at 24 h	µg/mL	=	29
O=c1[nH]c(-c2ccc3c(c2)OCO3)nc2ccccc12	solubility thermodynamic at 24 h	µg/mL	=	1
CN1CCC(c2ccc(-c3nc4c(F)cc(F)cc4c(=O)[nH]3)cc2)CC1.O=C(O)C(F)(F)F	solubility thermodynamic at 24 h	µg/mL	=	65

----------
test: Intrinsic clearance in human hepatocytes assessed per million cells; assay type: ADME, cell-based, Hepatocyte; details: read-out: CLH

compound.structure.string	hepatocyte CLint / µL/min/1e6 cells
CC(C)(O)c1ccc(-c2nc3c(F)cc(F)cc3c(=O)[nH]2)cc1	1.25

----------
Each record here notes measured pIC50.
Biological target: Poly [ADP-ribose] polymerase tankyrase-1 (Homo sapiens)
Sequence (O95271 whole entry): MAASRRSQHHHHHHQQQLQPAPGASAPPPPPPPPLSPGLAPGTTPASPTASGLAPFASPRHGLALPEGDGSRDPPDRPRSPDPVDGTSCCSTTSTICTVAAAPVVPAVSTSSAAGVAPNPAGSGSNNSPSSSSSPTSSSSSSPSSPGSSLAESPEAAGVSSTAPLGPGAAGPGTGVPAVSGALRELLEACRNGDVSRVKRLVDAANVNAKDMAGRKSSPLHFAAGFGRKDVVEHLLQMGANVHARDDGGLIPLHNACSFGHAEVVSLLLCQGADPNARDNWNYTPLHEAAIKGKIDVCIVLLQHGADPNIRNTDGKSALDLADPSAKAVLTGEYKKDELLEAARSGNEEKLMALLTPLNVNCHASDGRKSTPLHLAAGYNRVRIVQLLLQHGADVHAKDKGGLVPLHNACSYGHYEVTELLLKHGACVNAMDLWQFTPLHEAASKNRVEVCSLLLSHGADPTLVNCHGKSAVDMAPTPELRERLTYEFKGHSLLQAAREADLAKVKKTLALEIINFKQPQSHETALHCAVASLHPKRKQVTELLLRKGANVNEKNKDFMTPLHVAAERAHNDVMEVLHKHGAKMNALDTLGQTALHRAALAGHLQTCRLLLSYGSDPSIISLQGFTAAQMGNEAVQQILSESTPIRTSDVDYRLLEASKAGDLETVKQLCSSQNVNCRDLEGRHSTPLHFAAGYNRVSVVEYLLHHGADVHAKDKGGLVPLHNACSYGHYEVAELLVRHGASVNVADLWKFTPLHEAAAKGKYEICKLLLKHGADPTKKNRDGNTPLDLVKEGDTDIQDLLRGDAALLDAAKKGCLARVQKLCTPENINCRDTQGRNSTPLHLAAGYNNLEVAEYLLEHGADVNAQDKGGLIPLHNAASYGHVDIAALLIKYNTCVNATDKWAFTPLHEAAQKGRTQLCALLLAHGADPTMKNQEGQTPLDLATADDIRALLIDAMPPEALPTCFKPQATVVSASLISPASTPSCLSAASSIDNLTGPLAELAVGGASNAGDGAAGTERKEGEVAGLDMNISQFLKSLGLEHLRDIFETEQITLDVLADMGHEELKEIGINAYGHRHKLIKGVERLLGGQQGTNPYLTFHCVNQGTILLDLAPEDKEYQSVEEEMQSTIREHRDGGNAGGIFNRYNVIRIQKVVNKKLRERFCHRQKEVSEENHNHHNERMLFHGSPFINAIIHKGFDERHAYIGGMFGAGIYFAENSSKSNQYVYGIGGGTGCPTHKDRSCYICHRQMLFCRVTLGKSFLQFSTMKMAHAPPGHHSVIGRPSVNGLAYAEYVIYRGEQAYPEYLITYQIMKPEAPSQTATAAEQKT
Design: species or system Sf9
pIC50: −log10 of the molar value.

compound.structure.string	pIC50
CC(C)(O)c1ccc(-c2nc3c(F)ccc(F)c3c(=O)[nH]2)cc1	7.59
CC(C)(O)c1ccc(-c2nc3ccc(F)cc3c(=O)[nH]2)nc1	6.00
CN1CCN(c2ccc(-c3nc4ccc(F)cc4c(=O)[nH]3)cc2)CC1	7.92
Cc1cc(F)cc2c(=O)[nH]c(-c3ccc(N4CCN(C)CC4)cc3)nc12	8.82
Cc1cc(F)cc2c(=O)[nH]c(-c3ccc(C4CCN(C)CC4)cc3)nc12	8.66
COc1cccc2c(=O)[nH]c(-c3ccc(C(C)(C)O)cc3)nc12	7.46
CC(C)(O)c1ccc(-c2nc3ccc(Cl)cc3c(=O)[nH]2)cc1	7.64
Cc1cc(F)cc2c(=O)[nH]c(-c3ccc(C(C)(C)OCCO)cc3)nc12	8.80
Cc1cc(F)cc2c(=O)[nH]c(-c3ccc(C4CCNCC4)cc3)nc12.Cl	8.89
CC(C)(O)c1ccc(-c2nc3cccc(Cl)c3c(=O)[nH]2)cc1	7.46

----------
test: Intrinsic clearance in human liver microsomes assessed per mg protein in presence of NADPH by UPLC analysis; assay type: ADME, Microsome; conditions: read-out: CLH
Each record here notes measured microsomal CLint.
assay.endpoint: microsomal CLint (µL/min/mg)

compound.structure.string	unit.text	comparison.sign	val
CC(C)(O)c1ccc(-c2nc3c(F)ccc(F)c3c(=O)[nH]2)cc1	µL/min/mg	<	10
CC(C)(O)c1ccc(-c2nc3c(F)cccc3c(=O)[nH]2)cc1	µL/min/mg	<	10
Cc1cc(F)cc2c(=O)[nH]c(-c3ccc(N4CCN(C)CC4)cc3)nc12	µL/min/mg	=	14
CN1CCC(c2ccc(-c3nc4c(F)cc(F)cc4c(=O)[nH]3)cc2)CC1.O=C(O)C(F)(F)F	µL/min/mg	<	10
CC(C)(O)c1ccc(-c2nc3ccccc3c(=O)[nH]2)cc1	µL/min/mg	=	15
CC(C)(C)c1ccc(-c2nc3ccc(F)cc3c(=O)[nH]2)cc1	µL/min/mg	=	70
CN1CCN(c2ccc(-c3nc4ccc(F)cc4c(=O)[nH]3)cc2)CC1	µL/min/mg	<	10
Cc1cc(F)cc2c(=O)[nH]c(-c3ccc(C(C)(C)OCCO)cc3)nc12	µL/min/mg	=	37
Cc1cccc2c(=O)[nH]c(-c3ccc(C(C)(C)O)cc3)nc12	µL/min/mg	<	10
CC(C)(C)c1ccc(-c2nc3ccccc3c(=O)[nH]2)cc1	µL/min/mg	=	19
CC(C)(O)c1ccc(-c2nc3cccc(F)c3c(=O)[nH]2)cc1	µL/min/mg	<	10
COc1ccc(-c2nc3ccccc3c(=O)[nH]2)cc1	µL/min/mg	=	217
CC(C)(O)c1ccc(-c2nc3ccc(F)c(F)c3c(=O)[nH]2)cc1	µL/min/mg	<	10
CC(C)(O)c1ccc(-c2nc3ccc(F)cc3c(=O)[nH]2)nc1	µL/min/mg	=	15
CC(C)(OCCO)c1ccc(-c2nc3ccc(F)cc3c(=O)[nH]2)cc1	µL/min/mg	<	10
COc1cccc2c(=O)[nH]c(-c3ccc(C(C)(C)O)cc3)nc12	µL/min/mg	=	12
Cc1cc(F)cc2c(=O)[nH]c(-c3ccc(C(C)(C)O)cc3)nc12	µL/min/mg	<	10
COCCOC(C)(C)c1ccc(-c2nc3ccc(F)cc3c(=O)[nH]2)cc1	µL/min/mg	=	41
O=c1[nH]c(-c2ccc3c(c2)OCO3)nc2ccccc12	µL/min/mg	=	83
CC(C)(O)c1ccc(-c2nc3c(Cl)cccc3c(=O)[nH]2)cc1	µL/min/mg	=	23
Cl.O=c1[nH]c(-c2ccc(C3CCNCC3)cc2)nc2c(F)cc(F)cc12	µL/min/mg	<	10
CC(C)(O)c1ccc(-c2nc3c(F)cc(F)cc3c(=O)[nH]2)cc1	µL/min/mg	<	10

The reported numbers originate from ChEMBL document CHEMBL4321794.
